# Experiment description: NCI Yeast Anticancer Drug Screen. Data for the rad14 strain (AID 159)
# Test settings: S. cerevisiae rad14 strain growth inhibition; at 1.2 µM
The panel holds about 79,000 compounds, 15% with a hit somewhere; the sample as a whole holds those more often. The source made the active and inactive calls. Cut-off read from the data, not from the text of the source: active = growth inhibition above about 70%; inactive = the rest.
Log the outcome using a class from yes for active, no for inactive

1) O=[N+]([O-])c1cccc2nc3ccccc3c(NCCCn3ccnc3[N+](=O)[O-])c12 = no
2) NC1CCCCC1N.Nc1c(N=Nc2ccc(-c3ccc(N=Nc4cc(S(=O)(=O)[O-])c5ccccc5c4N)cc3)cc2)cc(S(=O)(=O)[O-])c2ccccc12.[OH3+].[OH3+].[Pt+4] = no
3) O=C(COC(=O)c1ccccc1)c1ccc(Br)cc1 = no
4) CNCCCNc1c2ccccc2nc2cccc([N+](=O)[O-])c12 = yes
5) O=C(O)Cc1cc(F)ccc1C(=O)O = no
6) Cc1ccc(CC2(OCCN(C)C)CCC(C(C)(C)C)CC2)cc1 (stereo not drawn) = no
7) CCCCCCCCCCCCCCCCCC(=O)NCCCN(C)C = no
8) Cc1ccc(Sc2ccccc2N)cc1 = no

Look up the recorded call for CN(C)c1ccc(N=Nc2ccncc2)cc1 in this test. no

Which outcome was entered for the compound Clc1ccc2c(c1)N(CCCN1CCCC13CCCCC3)c1ccccc1S2 in this test? no
